B1: SETD8 (parent)
chain: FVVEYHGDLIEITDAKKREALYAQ

# Variants of: B1
# protocol-notes: protein stability index of a GFP-peptide fusion (GPS, HEK-293T) (PSI 1-6); higher = more stable;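 further: lentivirally expressed fusions sorted by FACS into six bins by GFP to DsRed ratio, PSI derived from sequencing read proportions per bin multiplied by bin number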
# condition-label: c terminus: a fixed tail appended
recorded-metric: protein stability index

biopolymer_sequence="FVVEYHGDHIEITDAKKREALYAQ [L9H]" obs_value=1.93
biopolymer_sequence="FVVEYHGDLIEITDAKKFEALYAQ [R18F]" obs_value=1.75
biopolymer_sequence="FVVEYHGDLIEITDAKKREMLYAQ [A20M]" obs_value=1.38
biopolymer_sequence="FVVEYHGDLIEITDAKKREGLYAQ [A20G]" obs_value=1.75
biopolymer_sequence="FVVEYHGDLIEITDAKKREAQYAQ [L21Q]" obs_value=2.21
biopolymer_sequence="FNVEYHGDLIEITDAKKREALYAQ [V2N]" obs_value=3.64
biopolymer_sequence="FVVEYHGDLIEICDAKKREALYAQ [T13C]" obs_value=2.42
biopolymer_sequence="FVVEYHGDLIEGTDAKKREALYAQ [I12G]" obs_value=1.64
biopolymer_sequence="FVVEYHGDLGEITDAKKREALYAQ [I10G]" obs_value=2.11
biopolymer_sequence="FVVEYHGDLIEITDAKKREALYAS [Q24S]" obs_value=1.6
biopolymer_sequence="FVVEYHGDLIEITDAKKREPLYAQ [A20P]" obs_value=1.08
biopolymer_sequence="FVVEYHGDLIEITDAKTREALYAQ [K17T]" obs_value=1.6
biopolymer_sequence="FVVEYHGDLIEIPDAKKREALYAQ [T13P]" obs_value=2.65
biopolymer_sequence="FVVEQHGDLIEITDAKKREALYAQ [Y5Q]" obs_value=2.93
biopolymer_sequence="FVVPYHGDLIEITDAKKREALYAQ [E4P]" obs_value=1.84
biopolymer_sequence="FVVEYHGDLIEITDAKKREALSAQ [Y22S]" obs_value=1.68
biopolymer_sequence="FVVEYHGDLIEITDAKWREALYAQ [K17W]" obs_value=1.84
biopolymer_sequence="FVVEYHGDLIEATDAKKREALYAQ [I12A]" obs_value=1.98
biopolymer_sequence="FTVEYHGDLIEITDAKKREALYAQ [V2T]" obs_value=2.38
biopolymer_sequence="FQVEYHGDLIEITDAKKREALYAQ [V2Q]" obs_value=3.12
biopolymer_sequence="FVVEYHGDSIEITDAKKREALYAQ [L9S]" obs_value=1.74
biopolymer_sequence="FVVEYHGDLIHITDAKKREALYAQ [E11H]" obs_value=2.25
biopolymer_sequence="FVVEYHGDLIEITDAKKWEALYAQ [R18W]" obs_value=2.33
biopolymer_sequence="FVVHYHGDLIEITDAKKREALYAQ [E4H]" obs_value=1.6
biopolymer_sequence="FVVEYHGDLIEITEAKKREALYAQ [D14E]" obs_value=2.75
biopolymer_sequence="FVVELHGDLIEITDAKKREALYAQ [Y5L]" obs_value=1.89
biopolymer_sequence="FVVEYHGDLIEITDAKKRENLYAQ [A20N]" obs_value=1.7
biopolymer_sequence="FVVEYHGDLIEITDAKDREALYAQ [K17D]" obs_value=1.65
biopolymer_sequence="FVVRYHGDLIEITDAKKREALYAQ [E4R]" obs_value=1.97
biopolymer_sequence="FVVEYHGDLEEITDAKKREALYAQ [I10E]" obs_value=2.21
biopolymer_sequence="FVIEYHGDLIEITDAKKREALYAQ [V3I]" obs_value=2.83
biopolymer_sequence="TVVEYHGDLIEITDAKKREALYAQ [F1T]" obs_value=4.14
biopolymer_sequence="FVVEYHNDLIEITDAKKREALYAQ [G7N]" obs_value=2.34
biopolymer_sequence="FVVEFHGDLIEITDAKKREALYAQ [Y5F]" obs_value=1.88
